Plant response rating, Crabgrass values by entry
Tested on: crabgrass (Digitaria sanguinalis)
procedure-summary: Test B preemergence
Type: in vivo
settings: Preemergence, Rate 500 g/ha; scale 0 to 100, 0 no effect, 100 complete control
// return a plain number; no unit text

// below: answered compounds
CCC(C)c1ccn(C2CCN(c3cccc(OC)c3)C2=O)n1 (stereo not drawn) [Compound 95]    100
COc1cc(N2CCC(n3ccc(C(C)C)n3)C2=O)ccc1C (stereo not drawn) [Compound 85]    100
CCC(CC)c1ccn(C2OCN(c3cccc(OC(F)(F)F)c3)C2=O)n1 (stereo not drawn) [Compound 68]    20
CCCCC(CCCC)c1ccn(C2SCN(c3cccc(C(F)(F)F)c3)C2=O)n1 (stereo not drawn) [Compound 116]    0
CCCCC(C)c1ccn(C2SCN(c3cccc(C(F)(F)F)c3)C2=O)n1 (stereo not drawn) [Compound 103]    60

Data point: Cc1cc(N2CCC(n3ccc(C(C)(C)C)n3)C2=O)cc(Br)c1C (stereo not drawn) [Compound 77] ; Plant response rating, Crabgrass = 90

Data point: COc1cc(N2CCC(n3ccc(C(C)C)n3)C2=O)ccc1Cl (stereo not drawn) [Compound 120] ; Plant response rating, Crabgrass = 100

Data point: CCC(CC)c1ccn(C2OCN(c3cccc(OC(F)F)c3)C2=O)n1 (stereo not drawn) [Compound 131] ; Plant response rating, Crabgrass = 100

Data point: CC(C)(C)c1ccn(C2CCN(c3cccc(C#N)c3)C2=O)n1 (stereo not drawn) [Compound 104] ; Plant response rating, Crabgrass = 0

Numbers sourced from patent US7138361B2.
